Tested system: MDM2 (Homo sapiens, UniProt Q00987)
Construct: His tag-GB1-TEV site fusion expressed in E. coli BL21; His-GB1 removed by TEV cleavage
Sequence (Q00987 5-125): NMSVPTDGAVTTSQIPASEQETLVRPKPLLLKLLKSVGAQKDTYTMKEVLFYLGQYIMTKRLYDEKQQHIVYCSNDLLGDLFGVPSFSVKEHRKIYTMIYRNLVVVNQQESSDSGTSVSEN
Protocol text: ITC, MDM2 titrated into compound, single-site fit
Assay type: binding
Below: a set of entries, each annotated with reported pKd.
Convention used: pKd is expressed as -log10 of the molar concentration.

Examples from the recorded data:
COc1cc(Cl)ccc1S(=O)(=O)NC(c1c[nH]c2ccccc12)C(Cl)(Cl)Cl (stereo not drawn) [M2-15]	5.50
O=S(=O)(NC(c1c[nH]c2cccc(Cl)c12)C(Cl)(Cl)Cl)c1ccc(Cl)cc1 (stereo not drawn) [M2-10]	6.24
O=S(=O)(NC(c1c[nH]c2ccccc12)C(Cl)(Cl)Cl)c1ccc(Cl)cc1 (stereo not drawn) [M2]	5.68

Tell me its pKd given Cc1ccc2c(C(NS(=O)(=O)c3ccc(Cl)cc3)C(Cl)(Cl)Cl)c[nH]c2c1 (stereo not drawn) [M2-12] as the entry.
6.07

Specify pKd for O=S(=O)(NC(c1c[nH]c2cccc(F)c12)C(Cl)(Cl)Cl)c1ccc(Cl)cc1 (stereo not drawn) [M2-7] and stop.
6.01

Name the recorded pKd of the item Cc1ccc(S(=O)(=O)NC(c2c[nH]c3cc(F)ccc23)C(Cl)(Cl)Cl)cc1 (stereo not drawn) [M2-18] in your answer.
5.88

Query pKd for COc1ccccc1-c1nnc(SC2CCCCC2=O)n1-c1ccc(Cl)cc1 (stereo not drawn) [M3]
4.78

For the molecule Cc1ccc(C2CC(=O)N2C(C(=O)Nc2c(C)cccc2C)c2ccc(Cl)cc2)o1 (stereo not drawn) [M1-11] , report pKd.
4.88

Using known records, supply pKd for O=S(=O)(NC(c1c[nH]c2cc(F)ccc12)C(Cl)(Cl)Cl)c1ccc(Cl)cc1 (stereo not drawn) [M2-14]
5.91

Tell me pKd reported for O=S(=O)(NC(c1c[nH]c2ccc(F)cc12)C(Cl)(Cl)Cl)c1ccc(Cl)cc1 (stereo not drawn) [M2-8]
5.80

In one line, give reported pKd of the entry Cc1cccc(C)c1NC(=O)C(c1ccc(Cl)cc1)N1C(=O)CC1c1ccc(OC(C)C)cc1 (stereo not drawn) [M1] .
5.55

Return the recorded pKd value; entry: Cc1cccc(C)c1NC(=O)C(c1ccc(Cl)cc1)N1C(=O)CC1c1ccsc1 (stereo not drawn) [M1-10]
4.71

Please list pKd recorded for the molecule Cc1cccc(C)c1NC(=O)C(c1ccc(Cl)cc1)N1C(=O)CC1c1cccc(C(F)(F)F)c1 (stereo not drawn) [M1-7]
4.47

Supply pKd value. Item: O=S(=O)(NC(c1c[nH]c2cc(Cl)ccc12)C(Cl)(Cl)Cl)c1ccc(Cl)cc1 (stereo not drawn) [M2-11]
6.15

Kindly indicate its recorded pKd. Item: O=S(=O)(NC(c1c[nH]c2cc(F)cc(F)c12)C(Cl)(Cl)Cl)c1ccc(Cl)cc1 (stereo not drawn) [M2-13]
6.31
